# measured-on: purified BACE protein (β-secretase) (Homo sapiens, UniProt P56817)
# Sequence (P56817 46-501): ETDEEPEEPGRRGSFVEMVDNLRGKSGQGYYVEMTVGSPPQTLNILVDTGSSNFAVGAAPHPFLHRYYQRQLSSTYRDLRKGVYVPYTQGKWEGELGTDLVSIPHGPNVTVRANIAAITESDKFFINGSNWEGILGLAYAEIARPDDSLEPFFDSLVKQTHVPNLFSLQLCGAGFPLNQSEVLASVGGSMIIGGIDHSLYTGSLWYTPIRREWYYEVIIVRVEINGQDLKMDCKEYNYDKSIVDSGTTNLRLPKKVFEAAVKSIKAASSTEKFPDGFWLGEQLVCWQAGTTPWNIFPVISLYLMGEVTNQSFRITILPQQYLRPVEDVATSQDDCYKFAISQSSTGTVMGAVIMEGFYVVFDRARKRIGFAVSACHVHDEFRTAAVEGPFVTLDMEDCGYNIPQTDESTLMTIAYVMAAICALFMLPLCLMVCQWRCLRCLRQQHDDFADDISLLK
pIC50: −log10 of the molar value.
readout-label: pIC50

a. CCCN(CCC)C(=O)c1cccc(C(=O)NC(Cc2ccccc2)P(=O)(O)CC(C(=O)Nc2ccc(C)cc2)C(C)C)c1 (centres unmarked)
b. CCCN(CCC)C(=O)c1cccc(C(=O)N[C@@H](Cc2ccccc2)P(=O)(O)CC(C)C(=O)NCCC(C)C)c1 (mixture of isomers)
Input: Smaller pIC50 value? Options are a and b // respond with label for picked entry
Output: a
(a: 6.70, b: 7.40)
